# key: entry, value: pIC50
System: HeLa
experiment.notes: Antiproliferative activity against human HeLa cells by MTT assay
Format: functional, cell-based
Schema: pIC50 number; meaning minus log10 of the concentration expressed in molar units.

Oc1ccc(CCNc2nc3ccccc3c3[nH]c4ccccc4c23)cc1O ... 5.42
c1ccc2c(c1)nc(NCCN1CCNCC1)c1c3ccccc3[nH]c21 ... 6.17
COc1ccc(Nc2nc3ccccc3c3[nH]c4ccccc4c23)cc1 ... 4.94
COc1cccc2c1C(=O)c1c(O)c3c(c(O)c1C2=O)C[C@@](O)(C(=O)CO)C[C@@H]3O[C@H]1C[C@H](N)[C@H](O)[C@H](C)O1 ... 6.48

Can you look up the measured pIC50 of `CN(C)CCCNc1nc2ccccc2c2[nH]c3ccccc3c12` for me?
6.07

So what's the measured pIC50 for this one? `Fc1ccc2nc(NCCN3CCNCC3)c3c4ccccc4[nH]c3c2c1`
5.27

What value of pIC50 has been reported for the following compound? `OCCNCCNc1nc2ccc(F)cc2c2[nH]c3ccccc3c12`
5.83

Quick check: pIC50 of `Oc1ccc(CCNc2nc3ccc(F)cc3c3[nH]c4ccccc4c23)cc1` ?
5.88

What does the record list as pIC50 for `OCCNc1nc2ccccc2c2[nH]c3ccccc3c12` ?
6.21

Name the reported pIC50 value associated with the compound `NCCCCCCCNc1nc2ccccc2c2[nH]c3ccccc3c12`
5.57

====

experiment.notes: Antiproliferative activity against human SKHep cells by MTT assay
Type: functional, cell-based
# key: entry, value: pIC50
The read-out pIC50 is expressed as -log10 of concentration in moles per litre.

NCCCCCCCNc1nc2ccccc2c2[nH]c3ccccc3c12 ... 5.60
OCCNCCNc1nc2ccc(F)cc2c2[nH]c3ccccc3c12 ... 5.88
Oc1ccc(CCNc2nc3ccc(F)cc3c3[nH]c4ccccc4c23)cc1 ... 5.11

What does the data say about its pIC50? Entry: `Oc1ccc(CCNc2nc3ccccc3c3[nH]c4ccccc4c23)cc1O`
5.18

// pIC50 lookup, key: `NCCCCCCNc1nc2ccccc2c2[nH]c3ccccc3c12`
5.60

I'd like to know its pIC50. The compound in question is `Oc1ccccc1Nc1nc2ccccc2c2[nH]c3ccccc3c12`
4.66

Please give the measured pIC50 for this compound: `c1ccc2c(c1)nc(NCCN1CCOCC1)c1c3ccccc3[nH]c21`
5.89

I have this compound here, `OCCNc1nc2ccccc2c2[nH]c3ccccc3c12` , and I need its recorded pIC50.
5.99

Bench note: what pIC50 did `OCCNCCNc1nc2ccccc2c2[nH]c3ccccc3c12` show?
6.14

What value of pIC50 has been reported for the following compound? `Oc1cccc(Nc2nc3ccccc3c3[nH]c4ccccc4c23)c1`
5.14

Find the recorded pIC50 belonging to `COc1ccc(Nc2nc3ccccc3c3[nH]c4ccccc4c23)cc1` and report it.
5.11

Name the reported pIC50 value associated with the compound `CN(C)CCNc1nc2ccccc2c2[nH]c3ccccc3c12`
5.80

Please look up its pIC50: `Oc1ccc(CCNc2nc3ccccc3c3[nH]c4ccccc4c23)cc1`
5.28

Value lookup for pIC50; key = `COc1ccc(CCNc2nc3ccccc3c3[nH]c4ccccc4c23)cc1OC`
5.23

# lookup: pIC50 of `c1ccc2c(c1)nc(NCCCCCCNc1nc3ccccc3c3[nH]c4ccccc4c13)c1c3ccccc3[nH]c21`
5.83

Which pIC50 is reported for this compound? `c1ccc2c(c1)nc(NCCN1CCNCC1)c1c3ccccc3[nH]c21`
6.42

# query: pIC50 of entry `Fc1ccc2nc(NCCN3CCOCC3)c3c4ccccc4[nH]c3c2c1`
5.28

// pIC50 lookup, key: `CN(C)CCCNc1nc2ccccc2c2[nH]c3ccccc3c12`
6.10

Give the measured pIC50 of `Cl.c1ccc2c(c1)nc(NCCCNCCCNc1nc3ccccc3c3[nH]c4ccccc4c13)c1c3ccccc3[nH]c21` .
7.05

Given the entry `c1ccc2c(c1)nc(NCCCCCCCNc1nc3ccccc3c3[nH]c4ccccc4c13)c1c3ccccc3[nH]c21` , report its measured pIC50.
5.79

Bench note: what pIC50 did `NCCNCCNc1nc2ccccc2c2[nH]c3ccccc3c12` show?
5.66

====

System: HeLa
experiment.notes: Antiproliferative activity against human HeLa cells by MTT assay
Assay type: functional, cell-based
measured.endpoint: log10 of IC50 (log10 of the value in nM)
Answers are given as log10 of IC50 in nM.

Check out these entries, answers already filled in.
c1ccc2c(c1)nc(NCCCCCCCNc1nc3ccccc3c3[nH]c4ccccc4c13)c1c3ccccc3[nH]c21 ... 3.08
CN(C)CCNc1nc2ccccc2c2[nH]c3ccccc3c12 ... 2.79
Oc1ccc(Nc2nc3ccccc3c3[nH]c4ccccc4c23)cc1 ... 3.19
CN(CCCNc1nc2ccccc2c2[nH]c3ccccc3c12)CCCNc1nc2ccccc2c2[nH]c3ccccc3c12 ... 2.95
Oc1cccc(Nc2nc3ccccc3c3[nH]c4ccccc4c23)c1 ... 4.01

Requested field: log10 of IC50. Item: `Fc1ccc2nc(NCCN3CCOCC3)c3c4ccccc4[nH]c3c2c1`
3.64

// returns reported log10 of IC50 for input `Oc1ccccc1Nc1nc2ccccc2c2[nH]c3ccccc3c12`
3.67

Which log10 of IC50 is reported for this molecule? `COc1ccc(CCNc2nc3ccccc3c3[nH]c4ccccc4c23)cc1OC`
2.72

Suppose we examine the molecule `Cl.c1ccc2c(c1)nc(NCCCNCCCNc1nc3ccccc3c3[nH]c4ccccc4c13)c1c3ccccc3[nH]c21` ; what log10 of IC50 value has been reported?
1.83

====

Each entry below carries its recorded pIC50.
System: HeLa
experiment.notes: Antiproliferative activity against human HeLa cells by MTT assay
Format: functional, cell-based
In textbook form, pIC50 equals minus log to base ten of the concentration in mol/L.

c1ccc2c(c1)nc(NCCCCCCNc1nc3ccccc3c3[nH]c4ccccc4c13)c1c3ccccc3[nH]c21 ... 6.51

Look up pIC50: `NCCNCCNc1nc2ccccc2c2[nH]c3ccccc3c12`
6.19

# query: pIC50 of entry `OCCNCCNc1nc2ccccc2c2[nH]c3ccccc3c12`
6.13

Name the recorded pIC50 for `NCCCCCCNc1nc2ccccc2c2[nH]c3ccccc3c12` .
7.14

Fill in: pIC50 of `Oc1ccc(CCNc2nc3ccccc3c3[nH]c4ccccc4c23)cc1` is ___
6.23

Return reported pIC50; argument: `c1ccc2c(c1)nc(NCCN1CCOCC1)c1c3ccccc3[nH]c21`
6.06

====

Test system: A549
experiment.notes: Antiproliferative activity against human A549 cells by MTT assay
Format: functional, cell-based
Listed here: items and their measured IC50.
Numeric answer only, unit nM assumed.

Oc1ccc(CCNc2nc3ccccc3c3[nH]c4ccccc4c23)cc1O ... 10300
c1ccc2c(c1)nc(NCCCCCCNc1nc3ccccc3c3[nH]c4ccccc4c13)c1c3ccccc3[nH]c21 ... 500

Any idea what IC50 was measured for `OCCNc1nc2ccccc2c2[nH]c3ccccc3c12` ?
990

====

Test system: A549
experiment.notes: Antiproliferative activity against human A549 cells by MTT assay
Type: functional, cell-based
measured.endpoint: pIC50
# pIC50 = -log10(concentration in molar units)

Examples with answers:
c1ccc2c(c1)nc(NCCN1CCOCC1)c1c3ccccc3[nH]c21 ... 5.95
NCCCCCCCNc1nc2ccccc2c2[nH]c3ccccc3c12 ... 5.65
Oc1cccc(Nc2nc3ccccc3c3[nH]c4ccccc4c23)c1 ... 4.99
Oc1ccccc1Nc1nc2ccccc2c2[nH]c3ccccc3c12 ... 4.75
CN(C)CCCNc1nc2ccccc2c2[nH]c3ccccc3c12 ... 6.30
OCCNCCNc1nc2ccccc2c2[nH]c3ccccc3c12 ... 6.15
COc1ccc(Nc2nc3ccccc3c3[nH]c4ccccc4c23)cc1 ... 4.96
OCCNCCNc1nc2ccc(F)cc2c2[nH]c3ccccc3c12 ... 6.03
CN(CCCNc1nc2ccccc2c2[nH]c3ccccc3c12)CCCNc1nc2ccccc2c2[nH]c3ccccc3c12 ... 6.37
NCCNCCNc1nc2ccccc2c2[nH]c3ccccc3c12 ... 5.99

What value of pIC50 has been recorded for this entry: `Fc1ccc2nc(NCCN3CCOCC3)c3c4ccccc4[nH]c3c2c1`
5.17

Given the entry `COc1ccc(CCNc2nc3ccccc3c3[nH]c4ccccc4c23)cc1OC` , report its measured pIC50.
5.27

Which pIC50 value is on record for `NCCCCCCNc1nc2ccccc2c2[nH]c3ccccc3c12` ?
7.08

====

experiment.notes: Antiproliferative activity against human SKHep cells by MTT assay
Format: functional, cell-based
measured.endpoint: IC50 (nM)
# number only, unit nM dropped from output

Oc1ccc(Nc2nc3ccccc3c3[nH]c4ccccc4c23)cc1 ... 5700
CN(CCCNc1nc2ccccc2c2[nH]c3ccccc3c12)CCCNc1nc2ccccc2c2[nH]c3ccccc3c12 ... 280

Now for the molecule whose IC50 we want.
Requested field: IC50. Item: `Fc1ccc2nc(NCCN3CCNCC3)c3c4ccccc4[nH]c3c2c1`
2670
